TARGET ENTITY: HLA-B*35:01
RUN DESCRIPTION: IEDB peptide-MHC binding, purified MHC/direct/fluorescence; filed as Kd, often an IC50 or EC50 that approximates it; bounds were set here for any values at or beyond the usual limits of such assays
CONDITION SUMMARY: source organism: Burkholderia mallei ATCC 23344
pKd: −log10 of the molar value.
ASSAY ENDPOINT: pKd

1) YMKAPSGAL ... 5.50

----------
TARGET ENTITY: HLA-B*53:01
RUN DESCRIPTION: IEDB peptide-MHC binding, purified MHC/competitive/radioactivity; filed as Kd, often an IC50 or EC50 that approximates it; bounds were set here for any values at or beyond the usual limits of such assays
CONDITION SUMMARY: source organism: Mammarenavirus guanaritoense
pKd: −log10 of the molar value.
ASSAY ENDPOINT: pKd

1. LPNTLVFQA ... 5.99
